Reference source for all entries: paper PMC8131363

Molecular target: cCaSR (Felis catus, UniProt C7FF08)
Settings: Supplementary Table I, agonist assay, dash = no activity
Property measured: EC50 Ago (M)

For orientation, consider the following solved cases.
- CNC(=N)NCCC[C@H](N)C(=O)O: -
- CC(NC1CCc2c(F)cc(Br)cc21)c1ccncc1 (stereo not drawn): -
- C1N2CN3CN1CN(C2)C3: -
- O=C(O)c1cc2c(cn1)[nH]c1ccccc12 [9H-pyrido[3,4-b]indole-3-carboxylic acid]: -
- N[C@H](CC(=O)O)C(=O)O: -
- C[C@](N)(CC(=O)O)C(=O)O [(S)-a-Methylaspartic acid, (S)-α-Methylaspartic acid]: -

[ask] Short answer please: EC50 Ago (M), cCaSR (Felis catus, UniProt C7FF08), entry N[C@@H](C[Se][Se]C[C@H](N)C(=O)O)C(=O)O.O [L-Selenocystine monohydrate]
[reply] -

[ask] Short answer please: EC50 Ago (M), cCaSR (Felis catus, UniProt C7FF08), entry NC(N)=NCCC[C@@H](N)C(=O)O
[reply] -

[ask] Short answer please: EC50 Ago (M), cCaSR (Felis catus, UniProt C7FF08), entry CC(=O)N1C=Cc2ccccc2C1CC(=O)NC(C)c1cccc(Br)c1 (stereo not drawn)
[reply] -

---

Target: hCaSR (Homo sapiens, UniProt P41180)
Construct: expressed in transfected cells; host or cells: HEK293/natClytin (transient, pcDNA6 as delivered by GeneArt)
Sequence (P41180 20-1078): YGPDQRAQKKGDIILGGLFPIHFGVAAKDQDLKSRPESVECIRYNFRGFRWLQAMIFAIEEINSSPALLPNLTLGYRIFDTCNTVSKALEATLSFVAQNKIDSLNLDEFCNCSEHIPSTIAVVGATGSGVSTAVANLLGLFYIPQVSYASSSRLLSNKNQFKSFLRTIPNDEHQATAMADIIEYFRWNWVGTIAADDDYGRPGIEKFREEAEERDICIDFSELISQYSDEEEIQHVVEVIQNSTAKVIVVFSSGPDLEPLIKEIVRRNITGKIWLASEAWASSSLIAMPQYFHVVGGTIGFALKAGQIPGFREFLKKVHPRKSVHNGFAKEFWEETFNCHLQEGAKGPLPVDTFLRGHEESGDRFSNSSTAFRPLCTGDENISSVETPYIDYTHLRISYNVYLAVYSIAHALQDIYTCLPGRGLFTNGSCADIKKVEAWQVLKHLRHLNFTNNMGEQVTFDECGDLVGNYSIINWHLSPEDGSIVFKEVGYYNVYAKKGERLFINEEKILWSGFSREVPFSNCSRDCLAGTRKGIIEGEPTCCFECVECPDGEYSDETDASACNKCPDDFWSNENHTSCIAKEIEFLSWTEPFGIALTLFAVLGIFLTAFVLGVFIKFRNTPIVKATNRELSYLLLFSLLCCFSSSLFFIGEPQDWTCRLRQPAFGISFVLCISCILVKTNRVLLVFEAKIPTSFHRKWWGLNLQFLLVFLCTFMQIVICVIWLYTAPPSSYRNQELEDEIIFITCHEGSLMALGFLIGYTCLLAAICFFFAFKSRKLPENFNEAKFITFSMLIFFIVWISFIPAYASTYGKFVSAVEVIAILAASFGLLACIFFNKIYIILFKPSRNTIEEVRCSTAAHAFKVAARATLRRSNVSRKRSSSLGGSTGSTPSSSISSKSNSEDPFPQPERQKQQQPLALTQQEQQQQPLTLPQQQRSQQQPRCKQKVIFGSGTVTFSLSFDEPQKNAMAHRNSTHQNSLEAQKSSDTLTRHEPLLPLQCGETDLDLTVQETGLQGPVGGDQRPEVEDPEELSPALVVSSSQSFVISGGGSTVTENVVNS
Assay: hCaSR transiently expressed in HEK293/natClytin, agonist luminescence assay
Format: cell-based
Property measured: EC50 (µM)
Express it in µM; write the number only.

[ask] Return reported EC50; argument: NCCCCNCCCN
[reply] 1300

---

Target: cCaSR (Felis catus)
Sequence (C7FF08 1-1081): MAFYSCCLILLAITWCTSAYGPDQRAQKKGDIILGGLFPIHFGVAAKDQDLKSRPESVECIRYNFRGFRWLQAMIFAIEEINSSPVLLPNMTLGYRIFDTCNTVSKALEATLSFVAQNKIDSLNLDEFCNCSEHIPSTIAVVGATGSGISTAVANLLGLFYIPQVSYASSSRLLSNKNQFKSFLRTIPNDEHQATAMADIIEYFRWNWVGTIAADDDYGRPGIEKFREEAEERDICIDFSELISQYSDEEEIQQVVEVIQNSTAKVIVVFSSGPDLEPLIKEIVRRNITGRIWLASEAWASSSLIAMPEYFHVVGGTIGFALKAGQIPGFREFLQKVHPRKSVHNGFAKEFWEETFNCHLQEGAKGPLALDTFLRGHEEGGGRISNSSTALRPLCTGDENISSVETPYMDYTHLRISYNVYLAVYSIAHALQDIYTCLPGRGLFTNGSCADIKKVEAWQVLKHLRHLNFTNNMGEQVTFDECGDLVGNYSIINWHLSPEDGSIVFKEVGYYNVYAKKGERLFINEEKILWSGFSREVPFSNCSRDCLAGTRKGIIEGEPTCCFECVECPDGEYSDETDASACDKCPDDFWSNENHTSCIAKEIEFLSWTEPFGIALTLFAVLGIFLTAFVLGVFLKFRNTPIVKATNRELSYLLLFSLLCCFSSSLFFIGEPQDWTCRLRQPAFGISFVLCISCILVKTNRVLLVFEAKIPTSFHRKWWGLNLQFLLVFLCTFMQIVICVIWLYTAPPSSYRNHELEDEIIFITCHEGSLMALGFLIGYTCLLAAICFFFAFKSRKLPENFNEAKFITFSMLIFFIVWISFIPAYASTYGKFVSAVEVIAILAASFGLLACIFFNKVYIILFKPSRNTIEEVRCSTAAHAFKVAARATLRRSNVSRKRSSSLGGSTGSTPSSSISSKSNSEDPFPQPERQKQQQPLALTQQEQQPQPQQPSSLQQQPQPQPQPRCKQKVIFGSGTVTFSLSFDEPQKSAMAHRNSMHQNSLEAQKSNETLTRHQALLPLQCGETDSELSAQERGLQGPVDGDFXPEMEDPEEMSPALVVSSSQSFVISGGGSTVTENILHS
Assay: cCaSR PAM luminescence assay, double injection with 0.5 mM CaCl2, HEK293/T-REx/natClytin-cCaSR
Settings: read-out: EC50 PAM; Supplementary Table I, positive allosteric modulator, presence of Ca2+
pEC50: −log10 of the molar value.
Property measured: pEC50

For orientation, consider the following solved cases.
* Cc1ccc(C(C)NC(C)c2cc3ccccc3[nH]2)cc1C (centres unmarked) [Enamine Screening - Z1592615858] | 5.72
* CC(NCC1Cc2ccccc2O1)c1ccc2ccccc2n1 (centres unmarked) [Enamine Screening - Z1437387381] | 5.05
* COc1cc(C(O)(c2nc3ccccc3s2)C(F)(F)F)c(OC)cc1N (centres unmarked) [Enamine Screening - Z317045236] | 5.62
* OCC(CNC1CCCOc2cc(Cl)ccc21)Cc1ccccn1 (centres unmarked) [Enamine Screening - Z1589915397] | 3.91

I = CC(NC1CCc2c(F)cc(Br)cc21)c1ccncc1 (centres unmarked) [Enamine Screening - Z1436888168]
II = CC(=O)N1C=Cc2ccccc2C1CC(=O)NC(C)c1cccc(Br)c1 (centres unmarked) [Enamine Screening - Z336933272]
[ask] Quick check, higher pEC50 between I and II ? Returns: label corresponding to the selected item.
[reply] II
(II: 4.92, I: 4.34)

P = COC(=O)C(NC1CCc2c(F)cccc21)c1cccc(C#N)c1 (centres unmarked) [Enamine Screening - Z1362199910]
Q = CC(NCC1CCCN(C)C1c1cccs1)c1cc(Cl)c(N)c(Cl)c1 (centres unmarked) [Enamine Screening - Z1532507755]
R = c1ccc(C2CCN(C3CCCc4ccccc43)C2)cc1 (centres unmarked) [Enamine Screening - Z1627256025]
S = COc1ccc(CCC(C)NC2CCOc3ccccc32)cc1O (centres unmarked) [Enamine Screening - Z1857407854]
[ask] Place the items in sequence of falling pEC50. List labels; respect the requested ordering.
[reply] S, Q, P, R
(S: 5.26, Q: 5.06, P: 4.23, R: 3.10)
